# Test system: LOX IMVI melanoma
# Protocol Text: NCI tumour cell line growth inhibition, 48 h
Measurement Type: TGI

compound="NCCN1C(=O)c2ccccc2C1c1ccc(Cl)cc1 (centres undefined)" observed="> 100 µM"
compound=O=C(NO)NCCCl observed="> 100 µM"
compound="COC1C(N(C)C)=C(c2ccccc2)C(=O)N2CCc3ccccc3C12 (centres undefined)" observed="> 100 µM"
compound=CCCCCCCCCCCc1c(O)c(=O)c2c(oc3c(=O)c(CCCCCCCCCCC)c(O)c(=O)c3n2-c2ccc(N(C)C)cc2)c1=O observed="50.7 µM"
compound=CCOC(=O)c1c(SC(=O)c2ccc(OC)cc2)n(-c2ccccc2)c(=S)n(-c2ccccc2)c1=O observed="> 100 µM"
compound=CN1CCN(c2nc(-c3csc(-c4cccs4)n3)cc3ccccc23)CC1 observed="3.22 µM"
compound="CC1(C)OC2OC(C(COS(=O)(=O)C(F)(F)F)N=[N+]=[N-])C(OC(=O)c3ccccc3)C2O1 (centres undefined)" observed="> 100 µM"
compound=C[C@@H]1CC(=O)C[C@@H]2CC[C@H]3[C@@H]4CC[C@H](OC(=O)c5cccc6cc7ccccc7nc56)[C@H]4CC[C@@H]3[C@H]21 observed="39.8 µM"
compound="O=C1CSC(c2cccc(Cl)c2)N1c1ccc(-c2ccc(-n3c(-c4ccccc4)nc4ccccc4c3=O)cc2)cc1 (centres undefined)" observed="> 100 µM"
compound=CC12CCC(CC1)C(C)(C)O2 observed="48.7 µM"
compound=COCCOCCOCCOc1cccc2c1C(=O)c1cccc(OCCOCCOCCOC)c1C2=O observed="> 100 µM"
compound=COc1cc(Cl)cc(-c2nn(-c3cccc(NC(=O)Nc4ccc(Cl)c(Cl)c4)c3)cc2-c2ccncc2)c1 observed="12.4 µM"
compound=CC(C)=CC(=O)c1[nH]c2ccccc2c1CC(=O)NCCc1cncn1C observed="> 100 µM"
compound=COC(=O)[C@H](Cc1cn(C)cn1)NC(=O)[C@H](C)NC(=O)Nc1cc(C(F)(F)F)cc(C(F)(F)F)c1 observed="> 10 µM"
